Numbers sourced from patent US20040087571A1.

experimental.readout: melting point

Q. Return reported melting point. Input compound: CC1CCC(O)([C@H](C[C@H](O)[C@H](Cc2ccccc2)NC(=O)c2cnc3ccccc3n2)C(N)=O)C1 (stereo partly shown)
A. 187 to 188 °C

Q. Return reported melting point. Input compound: NC(=O)[C@H](Cc1ccccc1Cl)C[C@H](O)[C@H](Cc1ccccc1)NC(=O)c1cnc2ccccc2n1
A. 182 to 185 °C

Q. Return reported melting point. Input compound: CC(C)(F)CC[C@H](C[C@H](O)[C@H](Cc1ccc(Cl)c(Cl)c1)NC(=O)c1cnc2c(F)c(F)ccc2c1)C(N)=O
A. 187 to 189 °C

Others:
Q. Return reported melting point. Input compound: CNC(=O)[C@H](CC(C)C)C[C@H](O)[C@H](CC(C)C)NC(=O)c1cnc2ccccc2c1
A. 155 to 157 °C

Q. Return reported melting point. Input compound: CC(C)(O)CC[C@H](C[C@H](O)[C@H](Cc1ccccc1F)NC(=O)c1cnc2ccccc2n1)C(N)=O
A. 147 to 148 °C

----------
experimental.readout: melting point

Solved entries (count: 3):
Q. Return reported melting point. Input compound: COc1cc(CCNC(=O)[C@H](CCC(C)(C)F)C[C@H](O)[C@H](Cc2ccccc2)NC(=O)c2cnc3ccccc3n2)cc(OC)c1 [Example 232]
A. 109 to 112 °C

Q. Return reported melting point. Input compound: NC(=O)[C@@H](Cc1ccc(Cl)c(Cl)c1)C[C@H](O)[C@H](Cc1ccccc1)NC(=O)c1cnc2ccccc2n1 [Example 279]
A. 199 to 201 °C

Q. Return reported melting point. Input compound: CCCC1CCC(O)([C@H](C[C@H](O)[C@H](Cc2ccccc2)NC(=O)c2cnc3ccccc3n2)C(N)=O)CC1 (stereo partly shown) [Example 300]
A. 227 to 228 °C

Now for another entry.
Q. Return reported melting point. Input compound: NC(=O)[C@H](Cc1ccccc1)C[C@H](O)[C@H](Cc1ccccc1)NC(=O)c1cnc2c(c1)CCC2 [Example 286]
A. 182 to 186 °C

----------
experimental.readout: melting point

Solved entries (count: 2):
Q. Return reported melting point. Input compound: CNC(=O)[C@H](CC(C)C)C[C@H](O)[C@H](Cc1ccc(OCc2ccccc2)cc1)NC(=O)c1cnc2ccccc2n1
A. 196 to 197 °C

Q. Return reported melting point. Input compound: O=C(N[C@@H](Cc1ccccc1)[C@@H](O)C[C@H](C(=O)NO)C1(O)C2CCCC1CCC2)c1cnc2ccccc2n1 (stereo partly drawn)
A. 130 to 132 °C

Others:
Q. Return reported melting point. Input compound: CNC(=O)[C@H](CC(C)C)C[C@H](O)[C@H](Cc1ccc(OS(=O)(=O)C(F)(F)F)cc1)NC(=O)c1cnc2ccccc2c1
A. 168 to 170 °C

----------
experimental.readout: melting point

Q. Return reported melting point. Input compound: NC(=O)[C@@H](C[C@H](O)[C@H](Cc1ccccc1)NC(=O)c1cnc2ccccc2n1)C1CCOCC1
A. 151 to 154 °C

Q. Return reported melting point. Input compound: NC(=O)[C@@H](C[C@H](O)[C@H](Cc1ccccc1)NC(=O)c1ccc2ccccc2n1)C1CCCCC1
A. 208 to 210 °C

Q. Return reported melting point. Input compound: CC(C)(F)CC[C@H](C[C@H](O)[C@H](Cc1ccccc1)NC(=O)c1cnc2ccccc2n1)C(=O)NCC1CCCO1 (stereo partly shown)
A. 111 to 115 °C

Q. Return reported melting point. Input compound: NC(=O)[C@@H](C[C@H](O)[C@H](Cc1ccccc1)NC(=O)c1cnc2ccccc2n1)C1(O)C2CC3CC(C2)CC1C3 (stereo partly shown)
A. 206 to 207 °C

Others:
Q. Return reported melting point. Input compound: CC(C)(O)CC[C@H](C[C@H](O)[C@H](Cc1ccccc1F)NC(=O)c1cnc2ccccc2n1)C(=O)NO
A. 130 to 131 °C

Q. Return reported melting point. Input compound: CC1(C)CC([C@H](C[C@H](O)[C@H](Cc2ccccc2)NC(=O)c2cnc3ccccc3n2)C(N)=O)CC(C)(C)C1
A. 188 to 190 °C

Q. Return reported melting point. Input compound: CC(C)(F)CC[C@H](C[C@H](O)[C@@H](NC(=O)c1cnc2ccccc2n1)c1ccccc1)C(N)=O
A. 159 to 160.5 °C

----------
The following compounds are listed with their measured melting point values.

Q. Return reported melting point. Input compound: CNC(=O)[C@H](CC(C)C)C[C@H](O)[C@H](Cc1ccc(O)cc1)NC(=O)c1cnc2ccccc2n1 [Example 65]
A. 170 to 172 °C

Others:
Q. Return reported melting point. Input compound: COc1cccc(CNC(=O)[C@H](CCC(C)(C)F)C[C@H](O)[C@H](Cc2ccccc2)NC(=O)c2cnc3ccccc3n2)c1OC [Example 242]
A. 99 to 101 °C

Q. Return reported melting point. Input compound: CNC(=O)C[C@H](C[C@H](O)[C@H](Cc1ccccc1)NC(=O)c1cnc2ccccc2n1)C(=O)NC [Example 151]
A. 178 to 180 °C

Q. Return reported melting point. Input compound: NC(=O)[C@H](Cc1ccccc1)C[C@H](O)[C@H](Cc1ccccc1)NC(=O)c1cnc2ccccc2c1 [Example 287]
A. 203 to 206 °C

----------
The following molecules are listed with their measured melting point values.

Q. Return reported melting point. Input molecule: CNC(=O)[C@H](CC(C)C)C[C@H](O)[C@H](Cc1ccc(Cl)cc1)NC(=O)c1cnc2ccccc2c1
A. 212.5 to 213.5 °C

Q. Return reported melting point. Input molecule: CC1(C)CCC(O)([C@H](C[C@H](O)[C@H](Cc2ccccc2)NC(=O)c2cnc3ccccc3n2)C(=O)NO)CC1
A. 118 to 123 °C

----------
The following compounds are listed with their measured melting point values.

Q. Return reported melting point. Input compound: CC(C)(F)CC[C@H](C[C@H](O)[C@H](Cc1ccccc1)NC(=O)c1cnc2ccccc2n1)C(=O)NCCc1cccnc1 [Example 220]
A. 154 to 155 °C

Q. Return reported melting point. Input compound: CNC(=O)[C@H](CC1CCC(F)(F)CC1)C[C@H](O)[C@H](Cc1ccccc1)NC(=O)c1cnc2ccccc2n1 [Example 132]
A. 170 to 172 °C

----------
The following molecules are listed with their measured melting point values.

Solved entries (count: 5):
Q. Return reported melting point. Input molecule: CC1CC([C@H](C[C@H](O)[C@H](Cc2ccccc2)NC(=O)c2cnc3ccccc3n2)C(N)=O)CC(C)O1 (some centres unmarked)
A. 195 to 198 °C

Q. Return reported melting point. Input molecule: CC(C)(F)CC[C@H](C[C@H](O)[C@H](Cc1ccccc1)NC(=O)c1cnc2ccccc2n1)C(=O)NCCc1ccncc1
A. 78 to 80 °C

Q. Return reported melting point. Input molecule: CC(C)(F)CC[C@H](C[C@H](O)[C@H](Cc1ccccc1)NC(=O)c1cnc2ccccc2n1)C(=O)NCc1ccccn1
A. 138 to 140 °C

Q. Return reported melting point. Input molecule: NC(=O)[C@@H](C[C@H](O)[C@H](Cc1ccccc1)NC(=O)c1cnc2ccccc2n1)C1Cc2ccccc2C1
A. 190 to 191 °C

Q. Return reported melting point. Input molecule: CNC(=O)[C@H](CC1CCCCC1)C[C@H](O)[C@H](CC1CCCCC1)NC(=O)c1cc2ccccc2cn1
A. 205 to 207 °C

Others:
Q. Return reported melting point. Input molecule: CC(C)(F)CC[C@H](C[C@H](O)[C@H](Cc1ccccc1)NC(=O)c1cnc2ccccc2n1)C(=O)NCCc1ccc(S(N)(=O)=O)cc1
A. 207 to 210 °C

----------
The following molecules are listed with their measured melting point values.

Solved entries (count: 2):
Q. Return reported melting point. Input molecule: CC(C)(F)CC[C@H](C[C@H](O)[C@H](Cc1ccccc1)NC(=O)c1cnc2ccccc2n1)C(=O)N1CCC[C@H]1CO [Example 239]
A. 217 to 219 °C

Q. Return reported melting point. Input molecule: CC(C)(F)CC[C@H](C[C@H](O)[C@H](Cc1ccccc1)NC(=O)c1cnc2ccccc2n1)C(=O)NCc1cccnc1 [Example 199]
A. 188 to 191 °C

Now for another entry.
Q. Return reported melting point. Input molecule: CNC(=O)[C@H](CC(C)C)C[C@H](O)[C@H](Cc1ccc(F)cc1)NC(=O)c1cnc2ccccc2c1 [Example 89]
A. 184 to 186 °C

----------
The following compounds are listed with their measured melting point values.

Solved entries (count: 4):
Q. Return reported melting point. Input compound: CNC(=O)[C@H](CCC(C)C)C[C@H](O)[C@H](Cc1cccc(F)c1)NC(=O)c1cnc2ccccc2n1
A. 158.5 to 159.5 °C

Q. Return reported melting point. Input compound: CC1CC(C)CC([C@@H](C[C@H](O)[C@H](Cc2ccccc2)NC(=O)c2cnc3ccccc3n2)C(N)=O)C1 (some centres unmarked)
A. 221 to 222 °C

Q. Return reported melting point. Input compound: NC(=O)[C@@H](C[C@H](O)[C@H](Cc1ccccc1)NC(=O)c1cnc2ccccc2n1)C1CCCCCC1
A. 216 to 217 °C

Q. Return reported melting point. Input compound: NC(=O)[C@H](Cc1cccc(F)c1)C[C@H](O)[C@H](Cc1ccccc1)NC(=O)c1cnc2ccccc2n1
A. 176 to 179 °C

Now for another entry.
Q. Return reported melting point. Input compound: CC(C)(F)CC[C@H](C[C@H](O)[C@H](Cc1ccccc1)NC(=O)c1cnc2ccccc2n1)C(=O)NN
A. 147 to 149 °C
